Data credit: the supplement of paper PMC8728848

target.or.system: Fuc(a1-3)[Gal(b1-4)]GlcNAc(b1-2)Man(a1-3)[Fuc(a1-3)[Gal(b1-4)]GlcNAc(b1-2)Man(a1-6)]Man(b1-4)GlcNAc(b1-4)GlcNAc
run.description: glycan array binding signal (z-score within array); higher = stronger binding
test.parameters: glycan notation: IUPAC condensed, linker removed
Many of the other results were omitted from the sample, so the strongest signals are more common in it than they were.
Measured glycan array binding signal (z-score), listed per entry for reference.

binder: PEB1 (Campylobacter jejuni), Q0P9X8 (protein) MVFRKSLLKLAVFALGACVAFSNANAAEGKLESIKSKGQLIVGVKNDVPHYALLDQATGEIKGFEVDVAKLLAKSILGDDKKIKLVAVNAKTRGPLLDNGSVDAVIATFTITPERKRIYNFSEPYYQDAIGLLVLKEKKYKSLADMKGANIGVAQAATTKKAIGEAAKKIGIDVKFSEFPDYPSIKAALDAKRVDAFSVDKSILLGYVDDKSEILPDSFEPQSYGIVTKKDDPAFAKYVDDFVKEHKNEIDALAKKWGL
glycan array binding signal (z-score): -0.842
//
binder: CBP21 (Serratia marcescens), O83009 (protein) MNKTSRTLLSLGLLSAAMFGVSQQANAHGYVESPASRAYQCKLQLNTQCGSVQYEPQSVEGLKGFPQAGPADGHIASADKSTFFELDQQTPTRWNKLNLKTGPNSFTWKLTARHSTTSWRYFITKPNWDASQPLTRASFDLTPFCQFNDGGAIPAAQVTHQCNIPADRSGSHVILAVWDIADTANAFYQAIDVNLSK
glycan array binding signal (z-score): -0.009
//
binder: Pwp2 (Candida glabrata) (protein) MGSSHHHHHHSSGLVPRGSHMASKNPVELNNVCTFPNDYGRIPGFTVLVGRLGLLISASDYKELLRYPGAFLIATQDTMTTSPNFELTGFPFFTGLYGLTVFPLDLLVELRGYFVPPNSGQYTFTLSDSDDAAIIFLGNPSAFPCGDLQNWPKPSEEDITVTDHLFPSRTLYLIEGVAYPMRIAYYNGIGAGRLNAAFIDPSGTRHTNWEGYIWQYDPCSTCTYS
glycan array binding signal (z-score): 2.54
